Task for the reader: assign each of the following compounds its reported pIC50.
assay-target: hTRPML1ΔNC-YFP, a plasma membrane variant of wild-type TRPML1 (Homo sapiens, UniProt Q9GZU1)
Sequence (Q9GZU1 whole entry, stated change not applied): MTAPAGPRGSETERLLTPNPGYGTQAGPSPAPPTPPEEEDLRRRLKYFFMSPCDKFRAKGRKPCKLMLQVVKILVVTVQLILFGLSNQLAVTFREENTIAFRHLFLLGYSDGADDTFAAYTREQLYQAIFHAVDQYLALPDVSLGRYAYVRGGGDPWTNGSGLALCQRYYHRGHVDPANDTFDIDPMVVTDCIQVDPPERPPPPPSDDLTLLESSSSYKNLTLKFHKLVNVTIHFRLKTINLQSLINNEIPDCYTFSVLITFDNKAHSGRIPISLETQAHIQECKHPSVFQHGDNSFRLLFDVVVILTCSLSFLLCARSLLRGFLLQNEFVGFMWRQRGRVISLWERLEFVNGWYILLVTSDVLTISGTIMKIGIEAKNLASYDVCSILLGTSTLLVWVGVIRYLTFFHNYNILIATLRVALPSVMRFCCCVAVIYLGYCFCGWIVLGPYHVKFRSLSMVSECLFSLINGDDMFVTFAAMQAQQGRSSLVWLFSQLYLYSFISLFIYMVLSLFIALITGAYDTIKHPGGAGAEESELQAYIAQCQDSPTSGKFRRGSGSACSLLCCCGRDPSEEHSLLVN
test-summary: TRPML1 inhibition, fluorimetric Ca2+ influx assay (Fluo-4/AM) on HEK293 cells stably expressing plasma membrane-targeted TRPML1
Type: cell-based
condition-notes: hTRPML1ΔNC-YFP, HEK293 cells, Ca2+ influx, Fluo-4/AM
Text: The two target compounds, pyridine analog 1 and pyrimidine analog 2, as well as the inadvertently obtained pyridone analog 6 were submitted to our previously described test for inhibition of TRPML1 on hTRPML1ΔNC-YFP, a plasma membrane variant of wild-type TRPML1 by means of a fluorimetric Ca^2+ influx assay. […]
To interpret pIC50, take it as minus log10 of a concentration measured in moles per litre.

Requested read-out: pIC50. Entry: "COc1ncc2c(n1)CC[C@@H]1[C@@H]2CC[C@]2(C)[C@@H](O)CC[C@@H]12"
5.06

Requested read-out: pIC50. Entry: "COc1ccc2c(c1)CC[C@@H]1[C@@H]2CC[C@]2(C)[C@@H](O)CC[C@@H]12"
6.22

Requested read-out: pIC50. Entry: "C[C@]12CC[C@@H]3c4ccc(=O)[nH]c4CC[C@H]3[C@@H]1CC[C@@H]2O"
4.40

Requested read-out: pIC50. Entry: "COc1ccc2c(n1)CC[C@@H]1[C@@H]2CC[C@]2(C)[C@@H](O)CC[C@@H]12"
6.00
